# measurement description: log P determination by HPLC on reversed-phase columns (C 18), analogously to OECD Guideline 117
# Type: physicochemical
# condition description: acidic range, pH 2.7, 0.1% aqueous formic acid and acetonitrile; read-out: log P[a] / log P(HCOOH)
Give chromatographic logP for every item shown.
Numbers only.

[[record]]
chemical_structure = "C=CCOC(=O)Nc1cc(SCC(F)(F)F)c(C)cc1F"
metric = "chromatographic logP"
data_value = 3.59

[[record]]
chemical_structure = "CCOC(=O)NNC(=O)Nc1cc(SCC(F)(F)F)c(C)cc1F"
metric = "chromatographic logP"
data_value = 2.41

[[record]]
chemical_structure = "Cc1cc(F)c(NC(=O)OCCCl)cc1SCC(F)(F)F"
metric = "chromatographic logP"
data_value = 3.45


Please look at the following compound next.
Problem: Give a short answer stating reported chromatographic logP for `O=[N+]([O-])c1ccc(Cl)c(SSc2cc([N+](=O)[O-])ccc2Cl)c1` .
Solution: 3.31
